We begin with a simple list: items and their reported T/C.
test system: L1210 leukemia ip in BDF1 mice, survival T/C; assay: NCI In Vivo Anticancer Drug Screen. Data for tumor model L1210 Leukemia (intraperitoneal) in B6D2F1 (BDF1) mice; conditions: endpoint: mean survival time; dose: 6.25 mg/kg/injection; schedule: Q01DX009 (ip); vehicle: saline; higher = longer survival
Toxic doses and inconclusive results are not listed.

- molecule: "CN(C)P(Cl)(Cc1ccccc1)(c1ccccc1)c1ccccc1"
  T/C: "105 % of control"
- molecule: "CCCCCCCCNC12CC3CC(CC(C3)C1)C2"
  T/C: "89 % of control"
- molecule: "CC1=[N+](C)C(C)(C)CC(C)O1 (centres undefined)"
  T/C: "105 % of control"
- molecule: "Cc1ccc2c3csc4ccccc4c-3nc2c1"
  T/C: "101 % of control"

The measured values listed here are drawn from PubChem BioAssay AID248.
